test: in vitro; details: rat, gh3-tre-luc cells, AC50 (uM) modified / 1000, Tox21_110001=Tox21_200853; viability, 1 nM T3 present, 24 h
PROPERTY: CC50 at 24 h

Incoming: Return reported CC50 at 24 h. Input molecule: Cc1cccc(C#N)c1 [3-Methylbenzonitrile]
Outgoing: > 90 µM

* * *

assay: in vitro; conditions: rat, gh3-tre-luc cells, AC50 (uM) modified / 1000, Tox21_110001=Tox21_112097; viability, 1 nM T3 present, 24 h
PROPERTY: CC50 at 24 h

Incoming: Return reported CC50 at 24 h. Input compound: Oc1ccccc1-c1ccccc1 [Sodium 2-phenylphenate tetrahydrate]
Outgoing: > 50 µM

* * *

target: human RXRα (Homo sapiens, UniProt P19793); construct: host or cells: GeneBLAzer UAS-bla HEK 293T; assay: RXRa-bla-Ag mammalian one-hybrid beta-lactamase assay (TOX21_TR_RXR_BLA_Agonist_Followup_ratio, aeid 2253); assay type: cell-based; conditions: read-out: EMax (% of Control) tr-followup-rxr-bla-agonist-1
Sequence (P19793 227-458 limits assumed): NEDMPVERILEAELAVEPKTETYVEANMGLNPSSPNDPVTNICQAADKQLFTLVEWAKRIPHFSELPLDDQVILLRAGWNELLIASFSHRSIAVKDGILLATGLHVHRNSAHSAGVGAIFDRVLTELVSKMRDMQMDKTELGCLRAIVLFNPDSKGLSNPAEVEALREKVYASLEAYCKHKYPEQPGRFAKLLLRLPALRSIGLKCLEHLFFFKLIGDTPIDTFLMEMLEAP
Structures can show the parent of a compound that is named as a salt.
PROPERTY: Emax (%)
Dear colleague, please return just the value in %, with no unit written.

These solved cases illustrate the format of a correct answer.
CSCC[C@H](NC(=O)[C@H](Cc1ccc(OS(=O)(=O)O)cc1)NC(=O)[C@@H](N)CC(=O)O)C(=O)NCC(=O)N[C@@H](Cc1c[nH]c2ccccc12)C(=O)N[C@@H](CCSC)C(=O)N[C@@H](CC(=O)O)C(=O)N[C@@H](Cc1ccccc1)C(N)=O [Sincalide, reference compound]    36.1
NCC(=O)CCC(=O)O [Aminolevulinic acid hydrochloride]    13

Now let's try a different one.
Incoming: Return reported Emax. Input molecule: O=C(Cl)OCCOCCOC(=O)Cl [Diethlylene glycol bis chloroformate]
Outgoing: -1.9

* * *

tested on: GH3-TRE-Luc cell line; conditions: read-out: AC50 (uM) modified / 1000; Tox21_110001=Tox21_303397; viability, 1 nM T3 present, 24 h
PROPERTY: CC50

Incoming: Return reported CC50. Input compound: `CCc1cc(C(C)(C)C)c(O)c(C(C)(C)C)c1`
Outgoing: 85.5 µM

* * *

assay: in vitro; settings: rat, gh3-tre-luc cells, AC50 (uM) modified / 1000, Tox21_110001=Tox21_202269; viability, 1 nM T3 present, 24 h
PROPERTY: CC50 at 24 h

Incoming: Return reported CC50 at 24 h. Input compound: `C[C@]12CCC(=O)C=C1CC[C@@H]1[C@@H]2CC[C@]2(C)C(=O)CC[C@@H]12`
Outgoing: > 90 µM

* * *

test: in vitro; settings: rat, gh3-tre-luc cells, AC50 (uM) modified / 1000, Tox21_110001=Tox21_301746; viability, 1 nM T3 present, 24 h
PROPERTY: CC50 at 24 h

Incoming: Return reported CC50 at 24 h. Input molecule: `CNC=Nc1ccc(C)cc1C`
Outgoing: > 90 µM

* * *

assay: in vitro; details: rat, gh3-tre-luc cells, AC50 (uM) modified / 1000, Tox21_110001=Tox21_200894; viability, 1 nM T3 present, 24 h
PROPERTY: CC50 at 24 h

Incoming: Return reported CC50 at 24 h. Input compound: O=C(O)C(Cl)Br (stereo not shown) [Bromochloroacetic acid]
Outgoing: > 90 µM
